Biological target: NAD-dependent protein deacylase sirtuin-6 (Homo sapiens) (UniProt Q8N6T7)
Sequence (Q8N6T7 whole entry, the tested form may be a part): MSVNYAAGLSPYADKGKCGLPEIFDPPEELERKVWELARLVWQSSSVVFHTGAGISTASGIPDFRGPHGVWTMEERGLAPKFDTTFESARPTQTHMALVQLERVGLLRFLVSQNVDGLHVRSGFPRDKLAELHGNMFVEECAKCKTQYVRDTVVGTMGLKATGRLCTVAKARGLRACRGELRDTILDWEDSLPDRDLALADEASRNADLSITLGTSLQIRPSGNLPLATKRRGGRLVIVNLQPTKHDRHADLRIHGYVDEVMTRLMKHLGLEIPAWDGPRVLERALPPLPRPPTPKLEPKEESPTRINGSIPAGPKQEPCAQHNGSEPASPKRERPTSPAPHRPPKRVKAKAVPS
Assay: Substrate activity at human N-terminal His-tagged SIRT6 (1 to 355 residues) expressed in Escherichia coli at 0.5 uM measured after 2 hrs in presence of NAD+ and trypsin by fluorescence assay
*1 amine or outer side, *2 acyl side, *3 side chain or, on linkers, in order; H or OH if unused. Where a SMILES comes first, the peptide text is derived from it. The star is where a group is joined. AMC = Cc1cc(=O)oc2cc(N*)ccc12; Suc = O=C(CCC(=O)[*:2])[*:1]; Decanoyl = CCCCCCCCCC(=O)*
Measured Parameter: Activity (RFU)
Give bare numbers, in RFU.

>>> value_reported("CC(=O)NCCCC[C@H](NC(=O)[C@H](CCCNC(=N)N)NC(=O)[C@H](CO)NC(=O)[C@H](CC(N)=O)NC(C)=O)C(=O)Nc1ccc2c(C)cc(=O)oc2c1 (Ac-NSRK(Ac)-{AMC})")
0.49
>>> value_reported("CC[C@H](C)[C@H](NC(=O)[C@H](CC(C)C)NC(=O)[C@H](CCCNC(=N)N)NC(C)=O)C(=O)N[C@@H](CCCCNC(C)=O)C(=O)Nc1ccc2c(C)cc(=O)oc2c1 (Ac-RLIK(Ac)-{AMC})")
0.45
>>> value_reported("CCCCCCCCCC(=O)NCCCC[C@H](NC(=O)[C@H](CC(=O)O)NC(=O)[C@@H](NC(=O)[C@H](CCC(=O)O)NC(C)=O)[C@@H](C)O)C(=O)Nc1ccc2c(C)cc(=O)oc2c1 (Ac-ETDK(Decanoyl)-{AMC})")
0.39

Hi team, please reply with Activity for each item in this list.
1. CC(=O)NCCCC[C@H](NC(=O)[C@H](CCCCN)NC(=O)[C@H](Cc1cnc[nH]1)NC(=O)[C@H](CCCNC(=N)N)NC(C)=O)C(=O)Nc1ccc2c(C)cc(=O)oc2c1 (Ac-RHKK(Ac)-{AMC})
2. CC[C@H](C)[C@H](NC(C)=O)C(=O)N[C@@H](CCCNC(=N)N)C(=O)N[C@H](C(=O)N[C@@H](CCCCNC(=O)CCC(=O)O)C(=O)Nc1ccc2c(C)cc(=O)oc2c1)[C@@H](C)CC (Ac-IRIK(Suc)-{AMC})

Given back:
[0.5, 0.4]

----------
Molecular target: NAD-dependent protein deacylase sirtuin-5, mitochondrial (Homo sapiens) (UniProt Q9NXA8)
Sequence (Q9NXA8 37-310 limits assumed): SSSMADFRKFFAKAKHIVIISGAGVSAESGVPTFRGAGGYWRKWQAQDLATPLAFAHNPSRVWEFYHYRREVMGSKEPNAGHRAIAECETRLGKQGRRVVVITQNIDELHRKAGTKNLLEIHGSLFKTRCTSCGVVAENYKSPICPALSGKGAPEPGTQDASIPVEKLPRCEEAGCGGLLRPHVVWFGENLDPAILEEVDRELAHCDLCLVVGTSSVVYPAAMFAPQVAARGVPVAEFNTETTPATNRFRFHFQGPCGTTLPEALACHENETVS
Assay: Substrate activity at human N-terminal His-tagged SIRT5 (34 to 302 residues) expressed in Escherichia coli at 5 uM measured after 2 hrs in presence of NAD+ and trypsin by fluorescence assay
Where a SMILES comes first, the peptide text is derived from it. The star is where a group is joined. AMC = Cc1cc(=O)oc2cc(N*)ccc12; Decanoyl = CCCCCCCCCC(=O)*
Measured Parameter: Activity (RFU)
Give bare numbers, in RFU.

For orientation, consider the following solved cases.
>>> value_reported("CCCCCCCCCC(=O)NCCCC[C@H](NC(=O)[C@H](CCCNC(=N)N)NC(=O)[C@H](C)NC(=O)[C@@H](NC(C)=O)[C@@H](C)O)C(=O)Nc1ccc2c(C)cc(=O)oc2c1 (Ac-TARK(Decanoyl)-{AMC})")
0.28
>>> value_reported("CC(=O)NCCCC[C@H](NC(=O)[C@H](CCCCN)NC(=O)[C@H](Cc1cnc[nH]1)NC(=O)[C@H](CCCNC(=N)N)NC(C)=O)C(=O)Nc1ccc2c(C)cc(=O)oc2c1 (Ac-RHKK(Ac)-{AMC})")
0.3

Now let's try a different one.
Activity for CCCCCCCCCC(=O)NCCCC[C@H](NC(=O)[C@H](CCCNC(=N)N)NC(=O)[C@H](CC(C)C)NC(=O)[C@H](CC(=O)O)NC(C)=O)C(=O)Nc1ccc2c(C)cc(=O)oc2c1 (Ac-DLRK(Decanoyl)-{AMC}) is 0.36

----------
Hi there, I'd appreciate the recorded Activity for every entry that follows.
Biological target: NAD-dependent protein deacetylase sirtuin-1 (Homo sapiens) (UniProt Q96EB6)
Sequence (Q96EB6 whole entry, the tested form may be a part): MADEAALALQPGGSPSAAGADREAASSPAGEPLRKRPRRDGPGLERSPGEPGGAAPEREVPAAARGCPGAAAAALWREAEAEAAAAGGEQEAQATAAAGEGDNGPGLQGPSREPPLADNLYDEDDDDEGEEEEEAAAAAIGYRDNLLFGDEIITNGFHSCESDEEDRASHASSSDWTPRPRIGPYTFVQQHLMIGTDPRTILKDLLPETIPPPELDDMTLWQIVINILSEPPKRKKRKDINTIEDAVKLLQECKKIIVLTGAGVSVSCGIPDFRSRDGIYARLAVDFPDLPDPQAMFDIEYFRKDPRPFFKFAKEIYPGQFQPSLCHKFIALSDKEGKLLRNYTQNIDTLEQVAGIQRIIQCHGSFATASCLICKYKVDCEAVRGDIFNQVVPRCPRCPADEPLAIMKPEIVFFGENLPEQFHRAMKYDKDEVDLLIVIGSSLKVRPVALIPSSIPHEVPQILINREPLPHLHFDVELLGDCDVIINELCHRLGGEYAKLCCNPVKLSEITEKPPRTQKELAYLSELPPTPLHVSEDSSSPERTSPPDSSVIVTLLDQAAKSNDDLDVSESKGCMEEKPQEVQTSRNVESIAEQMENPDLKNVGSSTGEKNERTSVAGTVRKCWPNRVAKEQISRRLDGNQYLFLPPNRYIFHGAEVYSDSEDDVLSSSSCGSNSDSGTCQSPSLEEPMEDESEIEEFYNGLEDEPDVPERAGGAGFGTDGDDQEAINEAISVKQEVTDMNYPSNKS
Experiment: Substrate activity at human N-terminal His-tagged SIRT1 (183 to 664 residues) expressed in Escherichia coli at 50 uM measured after 2 hrs in presence of NAD+ and trypsin by fluorescence assay
*1 amine or outer side, *2 acyl side, *3 side chain or, on linkers, in order; H or OH if unused. Where a SMILES comes first, the peptide text is derived from it. The star is where a group is joined. AMC = Cc1cc(=O)oc2cc(N*)ccc12; Suc = O=C(CCC(=O)[*:2])[*:1]; Decanoyl = CCCCCCCCCC(=O)*
Give bare numbers, in RFU.

For orientation, consider the following solved cases.
>>> value_reported("CC(=O)N[C@@H](CC(C)C)C(=O)NCC(=O)N[C@@H](CO)C(=O)N[C@@H](CCCCNC(=O)CCC(=O)O)C(=O)Nc1ccc2c(C)cc(=O)oc2c1 (Ac-LGSK(Suc)-{AMC})")
0.98
>>> value_reported("CC[C@H](C)[C@H](NC(C)=O)C(=O)N[C@@H](CCCNC(=N)N)C(=O)N[C@H](C(=O)N[C@@H](CCCCNC(=O)CCC(=O)O)C(=O)Nc1ccc2c(C)cc(=O)oc2c1)[C@@H](C)CC (Ac-IRIK(Suc)-{AMC})")
2.05
>>> value_reported("CCCCCCCCCC(=O)NCCCC[C@H](NC(=O)[C@H](CC(=O)O)NC(=O)[C@@H](NC(=O)[C@H](CCC(=O)O)NC(C)=O)[C@@H](C)O)C(=O)Nc1ccc2c(C)cc(=O)oc2c1 (Ac-ETDK(Decanoyl)-{AMC})")
4.13
>>> value_reported("CC(=O)NCCCC[C@H](NC(=O)[C@H](CCCCN)NC(=O)[C@H](Cc1cnc[nH]1)NC(=O)[C@H](CCCNC(=N)N)NC(C)=O)C(=O)Nc1ccc2c(C)cc(=O)oc2c1 (Ac-RHKK(Ac)-{AMC})")
5.22

Activity for CC(=O)NCCCC[C@H](NC(=O)[C@H](CC(C)C)NC(=O)[C@H](CCCCN)NC(=O)[C@H](Cc1ccc(O)cc1)NC(C)=O)C(=O)Nc1ccc2c(C)cc(=O)oc2c1 (Ac-YKLK(Ac)-{AMC}) is 33

----------
Hi there, I'd appreciate the recorded Activity for every entry that follows.
Target: NAD-dependent protein deacylase sirtuin-6 (Homo sapiens)
Assay: Substrate activity at human N-terminal His-tagged SIRT6 (1 to 355 residues) expressed in Escherichia coli at 5 uM measured after 2 hrs in presence of NAD+ and trypsin by fluorescence assay
*1 amine or outer side, *2 acyl side, *3 side chain or, on linkers, in order; H or OH if unused. Where a SMILES comes first, the peptide text is derived from it. The star is where a group is joined. AMC = Cc1cc(=O)oc2cc(N*)ccc12; Suc = O=C(CCC(=O)[*:2])[*:1]; Decanoyl = CCCCCCCCCC(=O)*
Numbers only, in RFU.

For orientation, consider the following solved cases.
>>> value_reported("CC(=O)NCCCC[C@H](NC(=O)[C@H](CO)NC(=O)[C@H](Cc1ccccc1)NC(=O)[C@H](CC(=O)O)NC(C)=O)C(=O)Nc1ccc2c(C)cc(=O)oc2c1 (Ac-DFSK(Ac)-{AMC})")
0.36
>>> value_reported("CC(=O)N[C@@H](CO)C(=O)N[C@@H](CC(C)C)C(=O)NCC(=O)N[C@@H](CCCCNC(=O)CCC(=O)O)C(=O)Nc1ccc2c(C)cc(=O)oc2c1 (Ac-SLGK(Suc)-{AMC})")
0.37
>>> value_reported("CCCCCCCCCC(=O)NCCCC[C@H](NC(=O)[C@H](CC(=O)O)NC(=O)[C@@H](NC(=O)[C@H](CCC(=O)O)NC(C)=O)[C@@H](C)O)C(=O)Nc1ccc2c(C)cc(=O)oc2c1 (Ac-ETDK(Decanoyl)-{AMC})")
0.33

Hi team, please reply with Activity for each item in this list.
1. CCCCCCCCCC(=O)NCCCC[C@H](NC(=O)[C@H](CCCNC(=N)N)NC(=O)[C@H](CC(C)C)NC(=O)[C@H](CC(=O)O)NC(C)=O)C(=O)Nc1ccc2c(C)cc(=O)oc2c1 (Ac-DLRK(Decanoyl)-{AMC})
2. CC(=O)NCCCC[C@H](NC(=O)[C@H](CCCNC(=N)N)NC(=O)[C@H](CO)NC(=O)[C@H](CC(N)=O)NC(C)=O)C(=O)Nc1ccc2c(C)cc(=O)oc2c1 (Ac-NSRK(Ac)-{AMC})

Given back:
1: 0.62; 2: 0.36

----------
Molecular target: NAD-dependent protein deacylase sirtuin-5, mitochondrial (Homo sapiens) (UniProt Q9NXA8)
Experiment: Substrate activity at human N-terminal His-tagged SIRT5 (34 to 302 residues) expressed in Escherichia coli at 0.5 uM measured after 2 hrs in presence of NAD+ and trypsin by fluorescence assay
*1 amine or outer side, *2 acyl side, *3 side chain or, on linkers, in order; H or OH if unused. Where a SMILES comes first, the peptide text is derived from it. The star is where a group is joined. AMC = Cc1cc(=O)oc2cc(N*)ccc12; Suc = O=C(CCC(=O)[*:2])[*:1]; Decanoyl = CCCCCCCCCC(=O)*
Cut-off 0.3 RFU on Activity, inclusive. At or above means Fulfilled; below means Not fulfilled.

Some entries whose results are on file:
>>> group_label("CC[C@H](C)[C@H](NC(=O)[C@H](CC(C)C)NC(=O)[C@H](CCCNC(=N)N)NC(C)=O)C(=O)N[C@@H](CCCCNC(C)=O)C(=O)Nc1ccc2c(C)cc(=O)oc2c1 (Ac-RLIK(Ac)-{AMC})")
"Not fulfilled"
>>> group_label("CCCCCCCCCC(=O)NCCCC[C@H](NC(=O)[C@H](CCCNC(=N)N)NC(=O)[C@H](CC(C)C)NC(=O)[C@H](CC(=O)O)NC(C)=O)C(=O)Nc1ccc2c(C)cc(=O)oc2c1 (Ac-DLRK(Decanoyl)-{AMC})")
"Not fulfilled"
>>> group_label("CC(=O)N[C@@H](Cc1cnc[nH]1)C(=O)N[C@@H](Cc1ccccc1)C(=O)N[C@@H](CO)C(=O)N[C@@H](CCCCNC(=O)CCC(=O)O)C(=O)Nc1ccc2c(C)cc(=O)oc2c1 (Ac-HFSK(Suc)-{AMC})")
"Fulfilled"
>>> group_label("CCCCCCCCCC(=O)NCCCC[C@H](NC(=O)[C@H](CCCCN)NC(=O)[C@@H]1CCCN1C(=O)[C@H](CC(N)=O)NC(C)=O)C(=O)Nc1ccc2c(C)cc(=O)oc2c1 (Ac-NPKK(Decanoyl)-{AMC})")
"Fulfilled"
>>> group_label("CC(=O)N[C@@H](CO)C(=O)N[C@@H](CC(C)C)C(=O)NCC(=O)N[C@@H](CCCCNC(=O)CCC(=O)O)C(=O)Nc1ccc2c(C)cc(=O)oc2c1 (Ac-SLGK(Suc)-{AMC})")
"Fulfilled"

Consider now this further compound.
Asked: Check if Activity >= 0.3 RFU (inclusive). Item: CC(=O)NCCCC[C@H](NC(=O)[C@H](CC(C)C)NC(=O)[C@H](CCCCN)NC(=O)[C@H](Cc1ccc(O)cc1)NC(C)=O)C(=O)Nc1ccc2c(C)cc(=O)oc2c1 (Ac-YKLK(Ac)-{AMC})
Given back: Not fulfilled
